# Organism: Rattus norvegicus
# Run Description: In vitro inhibition of Thromboxane B2 (TXB2) production in glycogen-induced peritoneal cells of rat
# Format: functional, cell-based
pIC50: −log10 of the molar value.
Parameter Measured: pIC50

Worked set:
INSERT INTO results (smiles_record, observed) VALUES
  ('CCCCOC1=C(C)C(=O)C(C)=C(/C=C(\CCCc2cccnc2)C(=O)O)C1=O', 6.05),
  ('CCOC1=C(C)C(=O)C(/C=C(\CCCCCc2cccnc2)C(=O)O)=C(C)C1=O', 6.49);

[1] CCOC1=C(C)C(=O)C(C)=C(/C=C(\CCCCCc2cccnc2)C(=O)O)C1=O
[2] COC1=C(C)C(=O)C(/C=C(\CCCCCc2cccnc2)C(=O)O)=C(C)C1=O
[3] COC1=C(OC)C(=O)C(/C=C(\CCCCCc2cccnc2)C(=O)O)=C(C)C1=O
-- ask // ranking: key=pIC50, reverse=True Response field: labels, in requested order.
-- reply 2, 1, 3

###

# Run Description: in vitro activities of TXB2 in human whole blood
# Format: functional, tissue-based
Parameter Measured: IC50 (µM)

INSERT INTO assay_data (smiles_record, quantity_unit, observed) VALUES
  ('COC1=C(C)C(=O)C(/C=C(\CCCCCc2cccnc2)C(=O)O)=C(C)C1=O', 'µM', 3.2),
  ('COc1c(C)c(O)c(/C=C(\CCCCCc2cccnc2)C(=O)O)c(C)c1O', 'µM', 3);

###

# Species on record: Rattus norvegicus
# Run Description: In vitro inhibition of Thromboxane B2 (TXB2) production in glycogen-induced peritoneal cells of rat
# Format: functional, cell-based
Parameter Measured: IC50 (µM)

// below: answered molecules
INSERT INTO assay_data (smiles_record, parameter_measured, quantity_unit, observed) VALUES
  ('COc1c(C)c(O)c(C)c(/C=C(\CCCCCc2cccnc2)C(=O)O)c1O', 'IC50', 'µM', 1.5),
  ('COC1=C(/C=C(\CCCCCCc2cccnc2)C(=O)O)C(=O)C(C)=C(C)C1=O', 'IC50', 'µM', 0.42),
  ('COC1=C(C)C(=O)C(/C=C(\CCCc2cccnc2)C(=O)O)=C(C)C1=O', 'IC50', 'µM', 0.48),
  ('COc1c(C)c(O)c(/C=C(\CCCCCc2cccnc2)C(=O)O)c(C)c1O', 'IC50', 'µM', 0.4),
  ('COc1c(O)c(C)c(C)c(O)c1/C=C(\CCCCCc1cccnc1)C(=O)O', 'IC50', 'µM', 0.14);

[1] COC1=C(C)C(=O)C(C)=C(/C=C(\CCCCCc2cccnc2)C(=O)O)C1=O
[2] COC1=C(/C=C(\CCCCCc2cccnc2)C(=O)O)C(=O)C(C)=C(C)C1=O
-- ask Given the listed items, does 1 or 2 have the lesser reported IC50? Record your answer as the label of the chosen record.
-- reply 2

###

# Species: Rattus norvegicus
# Run Description: In vitro inhibition of Thromboxane B2 (TXB2) production in glycogen-induced peritoneal cells of rat
# Type: functional, cell-based
pIC50: −log10 of the molar value.
Each entry below carries its recorded pIC50.

Solved entries:
INSERT INTO results (smiles_record, observed) VALUES
  ('COC1=C(C)C(=O)C(C)=C(/C=C(\CCCCCCc2cccnc2)C(=O)O)C1=O', '> 7.00'),
  ('COC1=C(C)C(=O)C(/C=C(\CCCCCCc2cccnc2)C(=O)O)=C(C)C1=O', 6.92);

Shifting focus to the molecule that follows.
-- ask Given the entry CCCCOC1=C(C)C(=O)C(C)=C(/C=C(\CCCCCc2cccnc2)C(=O)O)C1=O , report its measured pIC50.
-- reply > 7.00
